FYI, the data here is from patent US20140179896A1.

- target.of.assay: T1, mouse vascular endothelial growth factor receptor-2 Fc chimera (Flk-1-Fc) (mouse, UniProt P35918 20-762)
- T1 construct: purchased from R&D Systems; also called mouse VEGF-R2-Fc; not shown: Fc part of the purchased chimera
- protocol.details: radioactive equilibrium binding assay
Would you kindly list Kd for each of these binders?

Study these solved cases before continuing.
binder	Kd
E29 (designed binder, Del 1-8 10Fn3 clone; Flag-tagged in vitro translated protein in the radioactive assay, His6-tagged E. coli protein in BIAcore and cell assays; tags left out) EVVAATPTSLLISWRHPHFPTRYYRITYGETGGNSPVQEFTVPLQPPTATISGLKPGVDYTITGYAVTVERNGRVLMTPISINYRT	< 0.9 nM
E26 (designed binder, Del 1-8 10Fn3 clone; Flag-tagged in vitro translated protein in the radioactive assay, His6-tagged E. coli protein in BIAcore and cell assays; tags left out) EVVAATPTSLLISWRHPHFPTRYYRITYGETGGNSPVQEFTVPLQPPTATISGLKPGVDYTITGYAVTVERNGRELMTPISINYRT	2 nM
E28 (designed binder, Del 1-8 10Fn3 clone; Flag-tagged in vitro translated protein in the radioactive assay; tag left out) EVVAATPTSLLISWRHPHFPTRYYRITYGETGGNSPVQEFTVPLQPPTATISGLKPGVDYTITGYAVTLERNGRELMVPISINYRT	2.1 nM
E5 (designed binder, Del 1-8 10Fn3 clone; Flag-tagged in vitro translated protein in the radioactive assay; tag left out) EVVAATPTSLLISWRHPHFPTRYYRITYGETGGNSPVQEFTVPLQPPTATISGLKPGVDYTITGYAVTDGQNGRLLNVPISINYRT	3.2 nM
E6 (designed binder, Del 1-8 10Fn3 clone; Flag-tagged in vitro translated protein in the radioactive assay, His6-tagged E. coli protein in BIAcore; tags left out) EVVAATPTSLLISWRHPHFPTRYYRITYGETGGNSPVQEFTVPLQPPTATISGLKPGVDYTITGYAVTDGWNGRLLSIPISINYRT	7.1 nM

Give one value of Kd per listed binder.
1. E18 (designed binder, Del 1-8 10Fn3 clone; Flag-tagged in vitro translated protein in the radioactive assay, His6-tagged E. coli protein in BIAcore and cell assays; tags left out) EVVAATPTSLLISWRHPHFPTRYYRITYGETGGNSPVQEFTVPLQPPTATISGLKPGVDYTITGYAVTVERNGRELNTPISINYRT
2. E25 (designed binder, Del 1-8 10Fn3 clone; Flag-tagged in vitro translated protein in the radioactive assay, His6-tagged E. coli protein in BIAcore; tags left out) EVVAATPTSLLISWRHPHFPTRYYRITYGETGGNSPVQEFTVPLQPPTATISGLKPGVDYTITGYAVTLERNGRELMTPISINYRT
3. E9 (designed binder, Del 1-8 10Fn3 clone; Flag-tagged in vitro translated protein in the radioactive assay; tag left out) EVVAATPTSLLISWRHPHFPTRYYRITYGETGGNSPVQEFTVPLQPPTATISGLKPGVDYTITGYAVTEERNGRTLRTPISINYRT
4. E19 (designed binder, Del 1-8 10Fn3 clone; Flag-tagged in vitro translated protein in the radioactive assay, His6-tagged E. coli protein in BIAcore and cell assays; tags left out) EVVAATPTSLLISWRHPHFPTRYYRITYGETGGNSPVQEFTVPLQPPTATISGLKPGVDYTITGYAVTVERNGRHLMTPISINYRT
5. E3 (designed binder, Del 1-8 10Fn3 clone; Flag-tagged in vitro translated protein in the radioactive assay; tag left out) EVVAATPTSLLISWRHPHFPTRYYRITYGETGGNSPVQEFTVPLQPPTATISGLKPGVDYTITGYAVTDGRNDRKLMVPISINYRT

Reply:
["< 0.5 nM", "< 1.3 nM", "< 1.4 nM", "< 0.7 nM", "5.4 nM"]
